test system: SNB-75 CNS; experiment: NCI tumour cell line growth inhibition, 48 h
I'd appreciate it if you could supply TGI values for the items below.

Quick one: give measured TGI for CN(C)Cc1cc(C(=O)/C=C/c2ccccc2Cl)cc(CN(C)C)c1O
19.7 µM

Kindly indicate its recorded TGI. Item: CN(NC(=O)c1cccs1)C1=NCCCN1
> 100 µM

Give the reported TGI for this compound. COC(=O)/C(C#N)=C1\CCC(O)N1 (stereo not drawn)
> 100 µM

State its TGI: CC(C)CCCC(C)[C@H]1CCC2[C@H]3C(CC[C@@]21C)[C@@]1(C)CCC=C[C@]12C[C@@H]2[C@@H]3O (stereo partly drawn)
> 100 µM

Given the compound COc1ccc(/C=N/N=C(\N)NO)c(O)c1 , write its reported TGI.
2.42 µM

Quote TGI reported for CC1CCOc2ccc(cc2)C=Nc2ccc(cc2)CCc2ccc(cc2)N=Cc2ccc(cc2)OCC1 (stereo not drawn) please.
77.3 µM

Quick one: give measured TGI for CCc1ccc2oc(-c3cc(O)c(-c4nc5cc(CC)ccc5o4)cc3O)nc2c1
> 100 µM

Note TGI for the compound shown: NP(=O)(OCC1=CC(=O)c2ccccc2C1=O)N(CCBr)CCBr (stereo not drawn)
> 35.8 µM

Given O=C1c2ccccc2CCCCCCCCCCC12OCCCO2 , respond with its TGI.
> 100 µM

Consider the compound CCOC(=O)CNC(=O)c1ccccc1Nc1ccnc(C(F)(F)F)c1 and give its recorded TGI.
> 100 µM

Write down TGI measured for item Oc1cn(-c2ccc(Cl)cc2)nc1-c1n[nH]c(=S)n1C1CCCCC1
0.702 µM

Respond only with TGI recorded for Cc1ccn2c(=O)cc(-c3ccccc3)nc2c1
> 100 µM

Read the entry Cc1cn(C2CC(n3cc(Cn4cc(Br)c(=O)[nH]c4=O)nn3)C(CO)O2)c(=O)[nH]c1=O (stereo not drawn) and write its reported TGI.
> 100 µM

Could you please provide reported TGI for COc1cc2ncn(-c3cc(OCCc4ccccc4)c(C(N)=O)s3)c2cc1OC ? Thanks!
> 25 µM

Give the reported TGI for this compound. CC1Cn2c(nc3ccccc32)NC1=O (stereo not drawn)
> 100 µM

Read off the recorded TGI for COc1ccc2nc3ccccc3c(NCCCCCCN(CCCl)CCCl)c2c1
0.0924 µM

Give the reported value of TGI for this record: O=c1c2ncn(COCCCl)c2n(-c2ccccc2)c(=S)n1-c1ccccc1
> 100 µM

Write down TGI measured for item CC1=NN2C(=N)/C(=C/c3ccco3)C(=O)N=C2S1
> 100 µM

Please indicate TGI recorded for O=C(Cc1ccccc1)NN1C(=O)/C(=C\c2cccc(O)c2)SC1=Nc1ccccc1
> 100 µM

Please give the documented TGI of CCCCCC(=O)NC(=S)Nc1nn[nH]n1
> 100 µM

Identify measured TGI corresponding to N.N.N.N.[Cl-].[Co+3].[N-]=[N+]=[N-].[N-]=[N+]=[N-]
> 100 µM

Quick one: give measured TGI for O=C(NCCCCCCNCc1cccc2ccccc12)Nc1cccc2ccccc12
> 100 µM

// fetch TGI given entry O=C1[C@H]2ON(c3ccccc3)C(c3ccc(Cl)cc3)[C@H]2C(=O)N1c1ccc(Cc2ccc(N3C(=O)[C@@H]4ON(c5ccccc5)C(c5ccc(Cl)cc5)[C@@H]4C3=O)cc2)cc1 (stereo partly drawn)
> 100 µM

Output measured TGI for this item: O=C(O)c1ccc(S(=O)(=O)c2ccccc2[N+](=O)[O-])cc1
> 10 µM

Return reported TGI. Input compound: CCCC(C)NC1=C(NC(C)=O)C(=O)c2ccccc2C1=O (stereo not drawn)
> 100 µM

// fetch TGI given entry C=CCSS/C=C/CS(=O)CC=C (stereo not drawn)
> 100 µM

Report TGI for C=C1C(=O)CC2C(=O)C(C)(O)CC/C=C(\C)C(=O)CC12 (stereo not drawn)
> 100 µM

Let me know recorded TGI for CCOC(=O)/C=C(\C(=O)OCC)n1cc(C)c(=O)n(Cc2cnnn2CCCCOC(C)=O)c1=O , thanks.
38.3 µM

Supply reported TGI belonging to this compound: O=[N+]([O-])c1ccc2c(c1)C(c1ccccc1Cl)=Nc1cn[nH]c1N2
> 21.2 µM

Using the record for O=C(Nc1ccc(-n2cc(-c3ccncc3)c(-c3ccc(Cl)c(O)c3)n2)cc1)Nc1ccc(Cl)c(C(F)(F)F)c1 , state its measured TGI.
2.14 µM

Respond only with TGI recorded for NCCSc1nc2ccccc2c(=O)n1-c1ccccc1
> 100 µM

Dear colleague, please send me the reported TGI for [Au+].[Au+].[Au+].[c-]1nccn1Cc1ccccc1.[c-]1nccn1Cc1ccccc1.[c-]1nccn1Cc1ccccc1 when you can.
18.9 µM

Entry Cc1ccc(C2(O)CC(c3ccc([N+](=O)[O-])o3)=NN2C(=O)COc2ccc(Cl)cc2)cc1 (stereo not drawn) needs its TGI filled in; supply it.
> 48.3 µM

Please report the measured TGI for NC(=O)NNC(=O)c1nc[nH]c1[N+](=O)[O-]
> 100 µM

Kindly indicate its recorded TGI. Item: CC12CCCCC1(C)C2Sc1ccccc1 (stereo not drawn)
> 100 µM

Return TGI for the following compound: O=C(Nc1cc(Cl)ccc1Cl)C(=O)C(c1cnc2ccccc2n1)[N+](=O)[O-] (stereo not drawn)
> 100 µM

Give recorded TGI. COc1ccc(Nc2nc(NS(=O)(=O)c3cc(C)c(Cl)cc3S)n[nH]2)cc1
> 100 µM

Please report TGI for the following compound: Cc1[nH]c(=O)[nH]c(=O)c1/C=C/C(=O)O
> 1000 µM

// fetch TGI given entry CCOC(=O)/C1=C(\C)N(c2ccc(C)cc2)C(=O)c2ccccc2C(=O)c2c(OC(C)=O)ccc(OC(C)=O)c21
> 100 µM

For the compound NC(CS/C(Cl)=C/Cl)C(=O)O (stereo not drawn) , report TGI.
> 100 µM

Give TGI for the following compound: COc1ccc(O)cc1
> 100 µM

State its TGI: O=C(Nc1ccc(CO)cc1)c1coc2ccccc2c1=O
> 100 µM

Look up and report measured TGI for this entry: C=CCCC(=O)CC(O)(C(F)(F)F)C(F)(F)F
> 100 µM
